- Tested On: T1, Cynomolgus monkey CD98 ECD with C-terminal His-tag (SEQ ID NO: 127) (cynomolgus monkey, UniProt P08195 105-529 (human entry))
- T1 construct: The entry includes the linker and the polyhistidine tag; also called cyCD98 ECD
- T1 chain: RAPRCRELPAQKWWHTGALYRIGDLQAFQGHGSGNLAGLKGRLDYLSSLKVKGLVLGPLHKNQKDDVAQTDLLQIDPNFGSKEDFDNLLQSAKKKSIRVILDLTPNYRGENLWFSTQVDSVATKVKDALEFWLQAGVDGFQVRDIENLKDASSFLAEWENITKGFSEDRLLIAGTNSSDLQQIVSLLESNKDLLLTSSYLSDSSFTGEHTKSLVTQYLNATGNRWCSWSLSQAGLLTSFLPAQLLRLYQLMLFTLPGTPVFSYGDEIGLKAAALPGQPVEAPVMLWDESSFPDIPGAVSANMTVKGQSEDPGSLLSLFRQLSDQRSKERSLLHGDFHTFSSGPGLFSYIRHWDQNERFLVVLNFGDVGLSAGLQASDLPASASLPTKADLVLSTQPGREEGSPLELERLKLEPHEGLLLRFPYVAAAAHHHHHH
- Test Summary: SPR (Biacore), recombinant CD98 ECD
Measured kon values are reported for all entries that follow.
Response body: numeric value in M⁻¹ s⁻¹, unit text excluded.

huAb102 (antibody, human IgG1, kappa, L234A L235A, V domains shown, Framework re-engineered humanized clone (parent huAb3v1); also called CL-huAb102) VH: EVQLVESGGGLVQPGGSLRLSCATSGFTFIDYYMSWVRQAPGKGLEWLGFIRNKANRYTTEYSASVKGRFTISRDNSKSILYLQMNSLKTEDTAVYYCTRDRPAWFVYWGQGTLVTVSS VL: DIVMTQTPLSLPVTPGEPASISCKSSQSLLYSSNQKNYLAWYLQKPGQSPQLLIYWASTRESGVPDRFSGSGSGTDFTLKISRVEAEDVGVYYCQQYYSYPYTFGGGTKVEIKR; 32000

Now look at this one.
Query string: # get_value(readout='kon', item= huAb108 (antibody, human IgG1, kappa, L234A L235A, V domains shown, Framework re-engineered humanized clone (parent huAb15v2); also called CL-huAb108) VH: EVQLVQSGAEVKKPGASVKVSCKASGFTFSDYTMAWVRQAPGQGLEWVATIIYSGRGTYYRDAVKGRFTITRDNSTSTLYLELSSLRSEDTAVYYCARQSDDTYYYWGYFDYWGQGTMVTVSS VL: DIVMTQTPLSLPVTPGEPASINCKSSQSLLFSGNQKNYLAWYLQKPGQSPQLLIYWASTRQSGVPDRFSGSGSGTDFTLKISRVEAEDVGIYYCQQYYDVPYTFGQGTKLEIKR )
Result string: 29000

Where do the numbers come from? From patent US20200147235A1.
